biological target: ProfilerPro Kinase Selectivity Assay Kit kinases (Homo sapiens, UniProt P00519); type: biochemical; details: ABL; 1 μM compound concentration
metricName: POC (Percent of control) ABL (POC)

INSERT INTO measurements (compound, recordedresult) VALUES
  ('COc1ccc(Nc2ncccc2-c2nc(C)nc3[nH]cnc23)cn1 [Example 58]', 99),
  ('Cc1nc(N)nc(-c2cc(CN3CCN(S(C)(=O)=O)CC3)cnc2Nc2cccc(O)c2)n1 [Example 30]', 98),
  ('Cc1nc(N)nc(-c2cccnc2Nc2cccc(O)c2)n1 [Example 23]', 97),
  ('Cc1nc(N)nc(-c2cccnc2Nc2cccc3[nH]ccc23)n1 [Example 22]', 103),
  ('CCc1cnc(Nc2ccc(OC)nc2)c(-c2nc(C)nc3[nH]cnc23)c1 [Example 74]', 103),
  ('Cc1cnc(Nc2cccc3[nH]ccc23)c(-c2nc(C)nc(N)n2)c1 [Example 46]', 97),
  ('COc1ccc(Nc2ncccc2-c2ncnc3[nH]cnc23)cn1 [Example 20]', 99);
